System: human pancreatic ductal epithelial cells (HPNE)
Ends that are not written are not given here.
Mark each entry condition met if its Cell viability, HPNE, Data2 sits below 100, and condition not met for all others.

Example results:
SVLEFS [TaPep52]    condition not met
SLEYEFK [TaPep38]    condition met
EFPEQN [TaPep17]    condition met

Asked: # check: Cell viability, HPNE, Data2 < 100 for NNDDEES [TaPep50]
Given back: condition not met

----------
Test system: human umbilical vein endothelial cells (HUVEC)
Ends that are not written are not given here.
# Cell viability, HUVEC, Data2 annotations
Lab note: jot the number down without any unit.

Below, each entry is followed by its recorded Cell viability, HUVEC, Data2 result.
EQPLQA [TaPep21]    98.43
KNDESVD [TaPep48]    102.34

Asked: Give reported Cell viability, HUVEC, Data2 value for KADGNR [TaPep4]
Given back: 102.98

----------
Parameter Cell viability, HUVEC, Data1, tested on human umbilical vein endothelial cells (HUVEC), listed per item.
Ends that are not written are not given here.

Below, each entry is followed by its recorded Cell viability, HUVEC, Data1 result.
AQDDLP [TaPep20]    93.96
FEGDQDA [TaPep18]    97.71
KNDESVD [TaPep48]    110.24
APEELDA [TaPep36]    93.96

Okay, now this substance:
Asked: Give reported Cell viability, HUVEC, Data1 value for SNDPVA [TaPep71]
Given back: 91.41

----------
Parameter Cell viability, BEAS-2B, Data2, tested on human bronchial epithelial cells (BEAS-2B), listed per item.
Ends that are not written are not given here.
Lab note: jot the number down without any unit.

SLEYEFK [TaPep38]    112.36

Okay, now this substance:
Asked: Give reported Cell viability, BEAS-2B, Data2 value for KGYEAV [TaPep5]
Given back: 117.75

----------
Tested on: human embryonic kidney cells (HEK293T)
Ends that are not written are not given here.
# Average cell viability, HEK293T annotations
Lab note: jot the number down without any unit.

Below, each entry is followed by its recorded Average cell viability, HEK293T result.
PTELESD [TaPep41]    106.18
EVGMQE [TaPep56]    101.26
EFPEQN [TaPep17]    98.68
EQGEQN [TaPep15]    92.65
AQDDLP [TaPep20]    99.56

Asked: Give reported Average cell viability, HEK293T value for KGYEAV [TaPep5]
Given back: 97.32

Asked: Give reported Average cell viability, HEK293T value for TAEQVA [TaPep33]
Given back: 102.24

Asked: Give reported Average cell viability, HEK293T value for KNDESVD [TaPep48]
Given back: 103.91

Asked: Give reported Average cell viability, HEK293T value for SLEYLP [TaPep35]
Given back: 98.64

Asked: Give reported Average cell viability, HEK293T value for SLEYEFK [TaPep38]
Given back: 98.90

Asked: Give reported Average cell viability, HEK293T value for EQPLQA [TaPep21]
Given back: 97.76

----------
Parameter Average cell viability, HUVEC, tested on human umbilical vein endothelial cells (HUVEC), listed per item.
Ends that are not written are not given here.
Lab note: jot the number down without any unit.

SVLEFS [TaPep52]    102.10

Asked: Give reported Average cell viability, HUVEC value for EDGPHGD [TaPep45]
Given back: 98.64

Asked: Give reported Average cell viability, HUVEC value for AQSSLS [TaPep40]
Given back: 101.30

Asked: Give reported Average cell viability, HUVEC value for TDPELV [TaPep60]
Given back: 102.29

Asked: Give reported Average cell viability, HUVEC value for DQKVLA [TaPep3]
Given back: 98.83

Asked: Give reported Average cell viability, HUVEC value for HIDELDE [TaPep22]
Given back: 101.94

Asked: Give reported Average cell viability, HUVEC value for DFKEELPK [TaPep42]
Given back: 100.96

Asked: Give reported Average cell viability, HUVEC value for LGDDLVK [TaPep19]
Given back: 102.69

Asked: Give reported Average cell viability, HUVEC value for AKDEKEL [TaPep1]
Given back: 97.71

----------
Test system: human pancreatic ductal epithelial cells (HPNE)
Ends that are not written are not given here.
reported.endpoint: Cell viability, HPNE, Data3
Lab note: jot the number down without any unit.

DQEPVE [TaPep44]    84.36
EEVPITD [TaPep46]    97.74

Asked: Give reported Cell viability, HPNE, Data3 value for AQSSLS [TaPep40]
Given back: 111.41

Asked: Give reported Cell viability, HPNE, Data3 value for LQPDAGK [TaPep6]
Given back: 98.73

Asked: Give reported Cell viability, HPNE, Data3 value for EDGPHGD [TaPep45]
Given back: 96.84

Asked: Give reported Cell viability, HPNE, Data3 value for VAEDLL [TaPep8]
Given back: 109.52

----------
experiment.notes: Electronic tongue analysis (Taste-Sensing System SA 402B)
Design: unit not given here
experimental.setup: sensor CA0, peptide 1 mg/mL, reference solution 30 mM KCl + 0.3 mM tartaric acid as baseline, detection threshold -13, room temperature, four replicates, first measurement excluded
Ends that are not written are not given here.
# Sour annotations

Below, each entry is followed by its recorded Sour result.
YQAENKH [TaPep14]    9.86
NGDDEEG [TaPep7]    11.92
YAGNAP [TaPep10]    8.97
NNDDEES [TaPep50]    9.63
KGYEAV [TaPep5]    12.61
EFPEQN [TaPep17]    14.54

Asked: Give reported Sour value for EPKVLV [TaPep54]
Given back: 8.51

Asked: Give reported Sour value for FPEQQD [TaPep16]
Given back: 12.97

Asked: Give reported Sour value for KNDESVD [TaPep48]
Given back: 12.29

Asked: Give reported Sour value for TIDDELR [TaPep26]
Given back: 10.93

Asked: Give reported Sour value for APEELDA [TaPep36]
Given back: 17.06

----------
experiment.notes: Electronic tongue analysis (Taste-Sensing System SA 402B)
Design: unit not given here
experimental.setup: sensor C00, peptide 1 mg/mL, reference solution 30 mM KCl + 0.3 mM tartaric acid as baseline, detection threshold 0, room temperature, four replicates, first measurement excluded
Ends that are not written are not given here.
reported.endpoint: Bitter
Lab note: jot the number down without any unit.

Below, each entry is followed by its recorded Bitter result.
DFKEELPK [TaPep42]    2.96
IAVPHEP [TaPep47]    3.37
DQKVLA [TaPep3]    2.95
EDGPHGD [TaPep45]    4.03
NNDDEES [TaPep50]    4.27
TQEVVN [TaPep25]    3.50

Asked: Give reported Bitter value for EPKVLV [TaPep54]
Given back: 2.50

Asked: Give reported Bitter value for YDGTPLN [TaPep11]
Given back: 3.24

Asked: Give reported Bitter value for VPDELN [TaPep23]
Given back: 3.47

Asked: Give reported Bitter value for APEELDA [TaPep36]
Given back: 3.11

Asked: Give reported Bitter value for LQPSLEH [TaPep59]
Given back: 1.90

Asked: Give reported Bitter value for SNDPVA [TaPep71]
Given back: 4.11

----------
Parameter Average cell viability, HPNE, tested on human pancreatic ductal epithelial cells (HPNE), listed per item.
Ends that are not written are not given here.

Below, each entry is followed by its recorded Average cell viability, HPNE result.
YQAENKH [TaPep14]    98.70
LQPDAGK [TaPep6]    97.97
APEELDA [TaPep36]    113.58
EEVPITD [TaPep46]    104.39

Okay, now this substance:
Asked: Give reported Average cell viability, HPNE value for FPEQQD [TaPep16]
Given back: 104.83

----------
Ends that are not written are not given here.
Parameter Cell viability, HEK293T, Data1, tested on human embryonic kidney cells (HEK293T), listed per item.
Lab note: jot the number down without any unit.

Below, each entry is followed by its recorded Cell viability, HEK293T, Data1 result.
LWGPVT [TaPep72]    102.49
HIDELDE [TaPep22]    106.09
VPDELN [TaPep23]    91.61
EQPLQA [TaPep21]    94.35
FEGDQDA [TaPep18]    104.57
DQEPVE [TaPep44]    105.71

Okay, now this substance:
Asked: Give reported Cell viability, HEK293T, Data1 value for LGDDLVK [TaPep19]
Given back: 110.63

----------
experiment.notes: Electronic tongue analysis (Taste-Sensing System SA 402B)
Design: unit not given here
experimental.setup: sensor C00, peptide 0.1 mg/mL, reference solution 30 mM KCl + 0.3 mM tartaric acid as baseline, detection threshold 0, room temperature, four replicates, first measurement excluded
Ends that are not written are not given here.
reported.endpoint: Bitter
Lab note: jot the number down without any unit.

Below, each entry is followed by its recorded Bitter result.
STGTIR [TaPep51]    9.91
EQPLQA [TaPep21]    7.83

Asked: Give reported Bitter value for TAEQVA [TaPep33]
Given back: 7.77

Asked: Give reported Bitter value for NNDDEES [TaPep50]
Given back: 7.18

Asked: Give reported Bitter value for LGDDLVK [TaPep19]
Given back: 7.19

Asked: Give reported Bitter value for DQEPVE [TaPep44]
Given back: 7.74

Asked: Give reported Bitter value for KGYEAV [TaPep5]
Given back: 7.90

Asked: Give reported Bitter value for DAELDK [TaPep34]
Given back: 7.62
